Here, each record is paired with measured MIC data.
# Tested on: Mycobacterium tuberculosis
# protocol details: Antibacterial activity against isoniazid/streptomycin/rifampicin/ethambutol/para-axminosalicylate/prothionamide/capreomycin resistant Mycobacterium tuberculosis 14862 assessed as inhibition of bacterial growth incubated for 7 days by alamar blue assay
# Format: functional
# condition parameters: Mycobacterium tuberculosis, 14862, 168 h; time 7 day
Answer in µg/mL, number only, no unit symbol.

Below, each entry is followed by its recorded MIC result.
structure smiles string	recorded number
COC(=O)NC[C@@H]1OC(=O)N2Cc3cc(-c4ccc(C#N)nc4)c(F)cc3O[C@@H]12	0.6
COC(=O)NC[C@@H]1OC(=O)N2Cc3cc(-c4ccc(-c5nnn(C)n5)nc4)c(F)cc3O[C@@H]12	0.22
CC(=O)NC[C@@H]1OC(=O)N2Cc3c(cc(F)c(-c4ccc(-c5nnn(C)n5)nc4)c3F)O[C@@H]12	0.33

Query: Sample CC(=O)NC[C@@H]1OC(=O)N2Cc3cc(-c4ccc(C#N)cc4)c(F)cc3O[C@@H]12 — what was its MIC?
Result: 0.41

Query: Please give the measured MIC for this compound: COC(=O)NC[C@@H]1OC(=O)N2Cc3cc(-c4ccc(C#N)cc4)c(F)cc3O[C@@H]12
Result: 0.24

Query: Request the reported MIC associated with CC(=O)NC[C@@H]1OC(=O)N2Cc3c(cc(F)c(-c4ccc(C#N)nc4)c3F)O[C@@H]12
Result: 0.47
